Target: UniProt:Q96RI1
Experiment: transient human FXR/Gal4-luciferase reporter assay
Conditions: Gal4-hFXR fusion construct, luciferase reporter in HEK293 cells; overnight incubation; response as percentage of 8 μM GW-4064 control
Protocol: The exemplified compounds of the present invention were tested in the transient human FXR/Gal4-luciferase reporter assay, and assay results were reported in Table 1 and Examples 1 to 3 together with other analytical data. […] This protocol can be scaled up, and the transiently transfected cells can be cryopreserved in an assay-ready format. […] The transfected cells are harvested, counted, and diluted such that 10-25,000 cells in 25 μL are plated into each well of the 384-well compound assay plate. […]
EC50 class ranges: bin A = under 300 nM, bin B = from 300 nM up to 900 nM, bin C = 900 nM and over

### Prompt Band for the recorded EC50 of CC(F)(F)c1nc(C23CCC(CN(C(=O)C4CC4(F)F)c4cccc(Br)c4)(CC2)CC3)no1 (racemic) [Example 31] ?
### Response bin A

### Prompt Band for the recorded EC50 of Cn1nc(C2CC2)cc1C12CCC(CN(c3cccc(C#N)c3)C(=O)[C@H]3C[C@@](C)(O)C3)(CC1)CC2 [Example 74] ?
### Response bin C

### Prompt Band for the recorded EC50 of CC(F)(F)c1ccc(C23CCC(CN(C(=O)C45CC(F)(C4)C5)c4cccc(C#N)c4)(CC2)CC3)nc1 [Example 49] ?
### Response bin B

###

target: human FXR (Homo sapiens, UniProt Q96RI1); assay: transient human FXR/Gal4-luciferase reporter assay; details: Gal4-hFXR fusion construct, luciferase reporter in HEK293 cells; overnight incubation; response as percentage of 8 μM GW-4064 control
Task for the reader: assign each of the following compounds its reported EC50.
Answers are plain numbers, in nM.

Answered cases to consult:
COMPOUND	ASSAY SYSTEM	UNIT ANNOTATION	REPORTED VALUE
CC(C)(C)c1nc(C23CCC(CN(C(=O)C45CC(F)(C4)C5)c4cccc(Nc5ccc(OC(F)F)cc5)c4)(CC2)CC3)no1 [Example 84]	human FXR (Homo sapiens, UniProt Q96RI1)	nM	84
CC(C)Oc1cccc(N(CC23CCC(c4nc(C(C)(C)C)no4)(CC2)CC3)C(=O)C23CC(F)(C2)C3)c1 [Example 124]	human FXR (Homo sapiens, UniProt Q96RI1)	nM	2000
COC(=O)COc1cccc(N(CC23CCC(c4ccc(N(C)C)cc4)(CC2)CC3)C(=O)C2CCCCC2)c1 [Example 80]	human FXR (Homo sapiens, UniProt Q96RI1)	nM	1600

Alright, here's another compound for you.
### Prompt Record request: EC50 value, item O=C(N(CC12CCC(c3noc(C(F)(F)F)n3)(CC1)CC2)c1cccc(Br)c1)C12CC(F)(C1)C2 [Example 35]
### Response 42

###

Target: human FXR (Homo sapiens)
Sequence (Q96RI1 262-486 limits assumed): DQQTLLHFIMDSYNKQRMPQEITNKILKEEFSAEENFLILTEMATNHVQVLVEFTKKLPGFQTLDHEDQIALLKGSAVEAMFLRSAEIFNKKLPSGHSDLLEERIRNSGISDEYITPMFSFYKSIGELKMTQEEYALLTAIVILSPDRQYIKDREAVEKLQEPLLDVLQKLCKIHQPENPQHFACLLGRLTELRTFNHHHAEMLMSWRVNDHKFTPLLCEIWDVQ
Assay: transient human FXR/Gal4-luciferase reporter assay
Conditions: Gal4-hFXR fusion construct, luciferase reporter in HEK293 cells; overnight incubation; response as percentage of 8 μM GW-4064 control
QUANTITY KIND: pEC50
Numbers only, as −log10 of the molar value.

MOLECULE SMILES	pEC50
COc1cccc(N(CC23CCC(c4nc(C5CC5)no4)(CC2)CC3)C(=O)C2CCS(=O)(=O)CC2)c1	5.40
CC(F)(F)c1nc(C23CCC(CN(C(=O)C4CC(F)(F)C4)c4cc(F)cc(C#N)c4)(CC2)CC3)no1	6.99
CCOc1cccc(N(CC23CCC(c4nc(C5CC5)no4)(CC2)CC3)C(=O)C23CC(F)(C2)C3)c1	6.99
COc1cc(N(CC23CCC(c4noc(C(C)(F)F)n4)(CC2)CC3)C(=O)C23CC(F)(C2)C3)ccn1	6.83
CS(=O)(=O)Nc1cccc(N(CC23CCC(c4nc(C5CC5)no4)(CC2)CC3)C(=O)C23CC(F)(C2)C3)c1	5.40
CC(C)(C)c1noc(C23CCC(CN(C(=O)C45CC(F)(C4)C5)c4ccc(F)c(C(N)=O)c4)(CC2)CC3)n1	6.39
CC(C)(C)c1nc(C23CCC(CN(C(=O)C45CC(F)(C4)C5)c4cccc(Nc5cnc(C6CC6)nc5)c4)(CC2)CC3)no1	6.73
CC(C)(C)c1noc(C23CCC(CN(c4cccc(Br)c4)C(=O)[C@H]4C[C@](O)(C(F)(F)F)C4)(CC2)C3)n1	5.40
COC(=O)COc1cccc(N(CC23CCC(c4ccc(N(C)C)c(Cl)c4)(CC2)CC3)C(=O)C2CCCCC2)c1	5.98
Cn1nc(C2CC2)cc1C12CCC(CN(c3cccc(S(C)(=O)=O)c3)C(=O)[C@H]3C[C@](O)(C(F)(F)F)C3)(CC1)CC2	5.40

For each of the compounds below, note its pEC50.
1. COc1cccc(N(CC23CCC(c4nc(C5CC5)no4)(CC2)CC3)C(=O)[C@H]2C[C@](O)(C(F)(F)F)C2)c1
2. O=C(N(CC12CCC(c3ccc(C(F)(F)F)cn3)(CC1)CC2)c1cccc(Nc2ccc(OC(F)F)cn2)c1)C12CC(F)(C1)C2
3. N#CC1(c2ccc(Nc3cccc(N(CC45CCC(c6noc(C7(F)CC7)n6)(CC4)CC5)C(=O)[C@H]4C[C@](O)(C(F)(F)F)C4)c3)cc2)CC1
4. NC(=O)c1nc(C23CCC(CN(C(=O)C45CC(F)(C4)C5)c4cccc(Br)c4)(CC2)CC3)no1
5. N#Cc1cc(F)cc(N(CC23CCC(c4nc(C5CC5)no4)(CC2)CC3)C(=O)C23CC(F)(C2)C3)c1
6. CC(C)(C)c1noc(C23CCC(CN(c4cccc(C#N)c4)C(=O)[C@H]4C[C@@](C)(O)C4)(CC2)CC3)n1

### Response
6.52
6.20
5.66
6.14
6.73
5.90

###

Biological target: human FXR (Homo sapiens, UniProt Q96RI1)
Sequence (Q96RI1 262-486 limits assumed): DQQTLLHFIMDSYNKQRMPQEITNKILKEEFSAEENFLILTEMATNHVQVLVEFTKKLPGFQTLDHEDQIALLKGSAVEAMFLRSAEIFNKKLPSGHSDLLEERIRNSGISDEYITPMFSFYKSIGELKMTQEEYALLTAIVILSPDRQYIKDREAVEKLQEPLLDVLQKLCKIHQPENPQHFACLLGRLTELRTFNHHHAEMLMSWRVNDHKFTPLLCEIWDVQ
Assay: transient human FXR/Gal4-luciferase reporter assay
Settings: Gal4-hFXR fusion construct, luciferase reporter in HEK293 cells; overnight incubation; response as percentage of 8 μM GW-4064 control
QUANTITY KIND: pEC50
Give bare numbers, as −log10 of the molar value.

Answered cases to consult:
COMPOUND	pEC50
CC(C)(F)c1nc(C23CCC(CN(C(=O)N[C@H]4CC[C@](C)(O)CC4)c4cccc(C#N)c4)(CC2)CC3)no1 [Example 95]	6.74
CC(F)(F)c1nc(C23CCC(CN(c4cccc(Cl)c4)C(=O)[C@H]4C[C@](O)(C(F)(F)F)C4)(CC2)CC3)no1 [Example 2]	7.19

Alright, here's another compound for you.
### Prompt Record request: pEC50 value, item CC(F)(F)c1nc(C23CCC(CN(C(=O)C45CC(F)(C4)C5)c4cccc(Cl)c4)(CC2)CC3)no1 [Example 1]
### Response 7.96

###

target: UniProt:Q96RI1; assay: transient human FXR/Gal4-luciferase reporter assay; conditions: Gal4-hFXR fusion construct, luciferase reporter in HEK293 cells; overnight incubation; response as percentage of 8 μM GW-4064 control
QUANTITY KIND: log10 EC50 (log10 of the value in nM)
Please note: log10 values; quantity EC50; unit nM.

MOLECULE SMILES	log10 EC50
CS(=O)(=O)Nc1cccc(N(CC23CCC(c4nc(C5CC5)no4)(CC2)CC3)C(=O)[C@H]2C[C@](O)(C(F)(F)F)C2)c1	3.60
CC(C)(C)c1noc(C23CCC(CN(C(=O)C45CC(F)(C4)C5)c4cncc(C#N)c4)(CC2)CC3)n1	3.12
CC(F)(F)c1nc(C23CCC(CN(C(=O)C45CC(F)(C4)C5)c4cccc(C#N)c4)(CC2)CC3)no1	1.08

For each of the compounds below, note its log10 EC50.
1. CC(F)(F)c1ccc(C23CCC(CN(C(=O)C45CC(F)(C4)C5)c4cccc(Br)c4)(CC2)CC3)nc1
2. CCOc1ccc(Nc2cccc(N(CC34CCC(c5noc(C(C)(C)C)n5)(CC3)CC4)C(=O)C34CC(F)(C3)C4)c2)cc1
3. COc1cccc(N(CC23CCC(c4nc(C5CC5)no4)(CC2)CC3)C(=O)C2CCOCC2)c1
4. N#Cc1cccc(N(CC23CCC(c4noc(C(F)(F)F)n4)(CC2)CC3)C(=O)[C@H]2C[C@](O)(C(F)(F)F)C2)c1
5. CS(=O)(=O)c1cccc(N(CC23CCC(c4nc(C5CC5)no4)(CC2)CC3)C(=O)C2CCC(F)(F)CC2)c1
6. CC(C)(C)c1nc(C23CCC(CN(C(=O)C45CC(F)(C4)C5)c4cccc(Nc5ccc(F)cc5)c4)(CC2)CC3)no1

### Response
1. 2.46
2. 2.78
3. 2.96
4. 2.64
5. 3.60
6. 2.25

For each of the compounds below, note its log10 EC50.
1. CC(F)(F)c1nc(C23CCC(CN(C(=O)N[C@H]4CC[C@](C)(O)CC4)c4cccc(C#N)c4)(CC2)CC3)no1
2. CC(F)(F)c1nc(C23CCC(CN(C(=O)N[C@H]4CC[C@](C)(O)CC4)c4cccc(Br)c4)(CC2)CC3)no1

### Response
1. 2.59
2. 2.18
